# tested-system: BTK (Homo sapiens (Human))
# Sequence (Q06187 whole entry): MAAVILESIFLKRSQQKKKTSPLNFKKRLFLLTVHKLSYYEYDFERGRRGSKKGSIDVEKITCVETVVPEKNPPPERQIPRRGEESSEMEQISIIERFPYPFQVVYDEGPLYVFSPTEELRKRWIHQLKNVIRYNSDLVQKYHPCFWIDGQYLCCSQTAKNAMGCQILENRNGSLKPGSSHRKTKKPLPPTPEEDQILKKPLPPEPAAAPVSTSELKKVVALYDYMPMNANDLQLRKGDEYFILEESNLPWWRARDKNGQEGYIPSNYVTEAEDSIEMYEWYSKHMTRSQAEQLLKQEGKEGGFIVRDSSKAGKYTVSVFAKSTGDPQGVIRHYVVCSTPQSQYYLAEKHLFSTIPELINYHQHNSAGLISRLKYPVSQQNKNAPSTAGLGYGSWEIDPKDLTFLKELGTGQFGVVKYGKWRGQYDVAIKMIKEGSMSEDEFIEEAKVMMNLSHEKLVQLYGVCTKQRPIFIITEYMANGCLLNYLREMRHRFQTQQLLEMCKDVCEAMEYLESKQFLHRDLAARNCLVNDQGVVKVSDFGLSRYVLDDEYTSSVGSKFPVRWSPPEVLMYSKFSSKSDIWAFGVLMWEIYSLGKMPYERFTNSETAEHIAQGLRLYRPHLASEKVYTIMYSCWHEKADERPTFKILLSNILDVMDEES
readout-name: pIC50
Answers are plain numbers, as −log10 of the molar value.

The compound identified as C=CC(=O)N1CCN(c2ccc(C(N)=O)c(-c3ccc(Oc4ccccc4)cc3)n2)CC1 [Example 5] registered its pIC50 at 8.33
